protocol.summary: Solubility in water
Type: physicochemical
measurement.parameters: water, 21° C.
property.label: solubility (µg/mL)

I = CC12C(=O)C(C)(C(c3ccccc3)=C1c1ccccc1)C1(Br)C(=O)N(Cc3cn(CCOC4OC(CO)C(O)C(O)C4O)nn3)C(=O)C21 (centres unmarked) [oCOm-49]
II = CC12C(=O)C(C)(C(c3ccccc3)=C1c1ccccc1)C1(Br)C(=O)N(CCC(=O)NC(CO)(CO)CO)C(=O)C21 (centres unmarked) [oCOm-24]
Query block: Smaller solubility value, I vs II ? Use the label to indicate which entry you chose.
Result block: I

* * *

Below, each entry is listed alongside its reported melting point.

{"compound": "CC12C(=O)C(C)(C(c3ccccc3)=C1c1ccccc1)C1([S+]([O-])c3ccccc3)C(=O)N(c3ccccc3)C(=O)C21 (centres unmarked)", "melting point": "186 °C"}

compound Cc1c2c(c(C)c(-c3ccccc3)c1-c1ccccc1)C(=O)N(CCC(=O)NCCNC(=O)OC(C)(C)C)C2=O , melting point observed: 183 to 185 °C

compound CC12C(=O)C(C)(C(c3ccccc3)=C1c1ccccc1)C1(Br)C(=O)N(c3ccc(O)c([N+](=O)[O-])c3)C(=O)C21 (centres unmarked) , melting point observed: 207 °C (dec.)

compound Cc1c2c(c(C)c(-c3ccccc3)c1-c1ccccc1)C(=O)N(CCNC(=O)OC(C)(C)C)C2=O , melting point observed: 181 to 182 °C

compound CC(=O)OC[C@H]1O[C@@H](Oc2ccc(N3C(=O)c4c(C)c(-c5ccccc5)c(-c5ccccc5)c(C)c4C3=O)cc2)[C@H](OC(C)=O)[C@@H](OC(C)=O)[C@@H]1OC(C)=O , melting point observed: 113 to 115 °C

compound Cc1c2c(c(C)c(-c3ccccc3)c1-c1ccccc1)C(=O)N(c1ccc(O)c([N+](=O)[O-])c1)C2=O , melting point observed: > 250 °C

compound CC12C(=O)C(C)(C(c3ccccc3)=C1c1ccccc1)C1(S(=O)(=O)c3ccccc3)C(=O)N(c3ccccc3)C(=O)C21 (centres unmarked) , melting point observed: 106 °C

compound CC12C(=O)C(C)(C(c3ccccc3)=C1c1ccccc1)C1(Cl)C(=O)N(c3ccccc3)C(=O)C21 (centres unmarked) , melting point observed: 182 to 184 °C

compound CC(C)(C)OC(=O)N[C@@H](CCCCN1C(=O)C2C3(C)C(=O)C(C)(C(c4ccccc4)=C3c3ccccc3)C2(Br)C1=O)C(=O)O (some centres unmarked) , melting point observed: 87 to 92 °C

compound COCCOCCOCCOc1ccc(N2C(=O)c3c(C)c(-c4ccccc4)c(-c4ccccc4)c(C)c3C2=O)cc1 , melting point observed: 127 to 129 °C

compound CC(=O)OCCN1C(=O)c2c(C)c(-c3ccccc3)c(-c3ccccc3)c(C)c2C1=O , melting point observed: 155 °C

compound Cc1c2c(c(C)c(-c3ccccc3)c1-c1ccccc1)C(=O)N(c1ccccc1)C2=O , melting point observed: 260 °C

compound CC12C(=O)C(C)(C(c3ccccc3)=C1c1ccccc1)C1(Sc3ccccc3)C(=O)N(c3ccccc3)C(=O)C21 (centres unmarked) , melting point observed: 193 °C

compound Cc1c2c(c(C)c(-c3ccccc3)c1-c1ccccc1)C(=O)N(CCN(CCNC(=O)OC(C)(C)C)C(=O)OC(C)(C)C)C2=O , melting point observed: 202 to 205 °C
